Measured MIC by item
System: C. albicans ATCC MYA-1003 (G)
Experiment: MIC determination by in vitro antifungal assay
Format: cell-based, Candida albicans
Conditions: strain G = C. albicans ATCC MYA-1063(R) (footnote); MYA-1003 in text
Report only the number, with the unit μg/mL^−1 understood.

Some compounds with recorded MIC:
[
  {
    "entrySmiles": "O=C(NNc1cccc(F)c1)c1nc(F)ccc1F",
    "MIC (μg/mL^−1)": 0.98
  },
  {
    "entrySmiles": "COc1cccc(NNC(=O)c2ccc(F)cn2)c1",
    "MIC (μg/mL^−1)": 0.98
  }
]

O=C(NNc1ccc(Cl)cc1)c1cnccn1 has a reported MIC of 1.95

O=C(NNc1ccc(Cl)cc1)c1nc(F)ccc1F has a reported MIC of 3.9

---

Test system: C. auris AR Bank #381
Assay: MIC determination by in vitro antifungal assay
Format: cell-based, Candida auris
Settings: Candidozyma auris; C. auris AR Bank # 381 (Table 2B); read-out: MIC
experimentalReadout: MIC (µg/mL)
Report only the number, with the unit µg/mL understood.

O=C(NNc1ccc(F)cc1F)c1cccc(F)n1 has a reported MIC of 3.9

COc1ccc(NNC(=O)c2ncc(F)cc2F)cc1 has a reported MIC of 0.98

O=C(NNc1ccc(F)cc1)c1cccc(Br)n1 has a reported MIC of 1.95

O=C(NNc1ccc(F)cc1)c1ccc(Br)cn1 has a reported MIC of 1.95

---

System: Aspergillus flavus ATCC MYA-3631 (O)
Assay: MIC determination by in vitro antifungal assay
Assay type: cell-based
Details: Aspergillus flavus; strain O = A. flavus ATCC MYA-3631; read-out: MIC
experimentalReadout: MIC

[
  {
    "entrySmiles": "O=C(NNc1cc(F)cc(F)c1)c1ccc(F)cc1F",
    "MIC": "> 31.3 µg/mL"
  },
  {
    "entrySmiles": "O=C(NNc1cc(F)ccc1F)c1ccccn1",
    "MIC": "3.9 µg/mL"
  },
  {
    "entrySmiles": "COc1cccc(NNC(=O)c2nc(F)ccc2F)c1",
    "MIC": "> 31.3 µg/mL"
  }
]

O=C(NNc1ccc(F)cc1)c1cccc(Br)n1 has a reported MIC of 15.6 µg/mL

COc1ccc(NNC(=O)c2cnccn2)cc1 has a reported MIC of > 31.3 µg/mL

O=C(NNc1ccc(F)cc1F)c1ccc(Br)cn1 has a reported MIC of > 31.3 µg/mL

O=C(NNc1cc(F)cc(F)c1)c1ccccn1 has a reported MIC of 1.95 µg/mL

O=C(NNc1ccc(F)cc1F)c1nc(F)ccc1F has a reported MIC of > 31.3 µg/mL

O=C(NNc1cccc(Cl)c1)c1cnccn1 has a reported MIC of > 31.3 µg/mL

O=C(NNc1ccc(F)cc1F)c1cccc(F)n1 has a reported MIC of 31.3 µg/mL

O=C(NNc1cc(F)ccc1F)c1ccc(F)cc1F has a reported MIC of 15.6 µg/mL

O=C(NNc1ccc(F)cc1)c1ccccn1 has a reported MIC of 31.3 µg/mL

O=C(NNc1ccc(F)cc1)c1ccc(Br)cn1 has a reported MIC of 15.6 µg/mL

COc1cccc(NNC(=O)c2ccc(Br)cn2)c1 has a reported MIC of > 31.3 µg/mL

---

System: C. albicans ATCC MYA-1237 (F)
Experiment: MIC determination by in vitro antifungal assay
Assay type: cell-based, Candida albicans
Settings: Candida albicans, strain F = C. albicans ATCC MYA-1237(R); read-out: MIC
experimentalReadout: log10(MIC) (log10 of the value in µg/mL)
// stored as log10 of MIC expressed in µg/mL

Some molecules with recorded log10(MIC):
[
  {
    "entrySmiles": "O=C(NNc1ccc(F)cc1)c1ncc(F)cc1F",
    "log10(MIC)": 0.29
  },
  {
    "entrySmiles": "O=C(NNc1cc(F)ccc1F)c1cnccn1",
    "log10(MIC)": 0.59
  },
  {
    "entrySmiles": "O=C(NNc1cc(Cl)cc(Cl)c1)c1ccccn1",
    "log10(MIC)": 0.59
  }
]

O=C(NNc1ccc(F)cc1F)c1ccc(F)cc1F has a reported log10(MIC) of 0.29

COc1ccc(NNC(=O)c2cccc(F)n2)cc1 has a reported log10(MIC) of -0.01

O=C(NNc1cccc(Cl)c1)c1ccc(F)cc1F has a reported log10(MIC) of 0.59

O=C(NNc1cc(F)cc(F)c1)c1ccccn1 has a reported log10(MIC) of 0.29

O=C(NNc1ccc(F)cc1)c1ccc(F)cc1F has a reported log10(MIC) of 0.29

O=C(NNc1ccc(F)cc1F)c1cnccn1 has a reported log10(MIC) of -0.31

O=C(NNc1cc(F)ccc1F)c1ccccn1 has a reported log10(MIC) of 0.29

COc1cccc(NNC(=O)c2ccc(Br)cn2)c1 has a reported log10(MIC) of 0.29

O=C(NNc1cc(F)cc(F)c1)c1cnccn1 has a reported log10(MIC) of 0.29

---

Tested on: Aspergillus terreus ATCC MYA-3633 (N)
Assay: MIC determination by in vitro antifungal assay
Assay type: cell-based
Conditions: Aspergillus terreus, strain N = A. terreus ATCC MYA-3633; read-out: MIC
experimentalReadout: MIC (µg/mL)
Report only the number, with the unit µg/mL understood.

Some compounds with recorded MIC:
[
  {
    "compound": "O=C(NNc1ccc(F)cc1F)c1ccc(F)cn1 [Compound 3g]",
    "resultUnits": "µg/mL",
    "MIC": 3.9
  },
  {
    "compound": "O=C(NNc1ccc(F)cc1)c1ncc(F)cc1F [Compound 7d]",
    "resultUnits": "µg/mL",
    "MIC": 3.9
  },
  {
    "compound": "O=C(NNc1ccc(F)cc1)c1cccc(Br)n1 [Compound 6d]",
    "resultUnits": "µg/mL",
    "MIC": 3.9
  },
  {
    "compound": "O=C(NNc1ccc(F)cc1F)c1cccc(F)n1 [Compound 5g]",
    "resultUnits": "µg/mL",
    "MIC": 3.9
  },
  {
    "compound": "O=C(NNc1cc(Cl)cc(Cl)c1)c1cnccn1 [Compound 9j]",
    "resultUnits": "µg/mL",
    "MIC": 3.9
  },
  {
    "compound": "O=C(NNc1ccc(F)cc1F)c1ccc(F)cc1F [Compound 1g]",
    "resultUnits": "µg/mL",
    "MIC": 31.3
  },
  {
    "compound": "COc1ccc(NNC(=O)c2ccc(Br)cn2)cc1 [Compound 4f]",
    "resultUnits": "µg/mL",
    "MIC": 7.8
  },
  {
    "compound": "O=C(NNc1ccc(F)cc1)c1ccc(Br)cn1 [Compound 4d]",
    "resultUnits": "µg/mL",
    "MIC": 7.8
  }
]

Next:
Lab entry: Aspergillus terreus ATCC MYA-3633 (N) assay, compound O=C(NNc1ccc(F)cc1F)c1ncc(F)cc1F [Compound 7g] , MIC = 7.8

---

Test system: Aspergillus fumigatus NRRL 163 (Q)
Assay: MIC determination by in vitro antifungal assay
Assay type: cell-based
Details: Aspergillus fumigatus, NRRL163; strain Q = A. fumigatus NRRL 163; read-out: MIC
experimentalReadout: MIC

Some molecules with recorded MIC:
[
  {
    "molecule": "O=C(NNc1cc(F)ccc1F)c1ccccn1 [Compound 2h]",
    "assayTarget": "Aspergillus fumigatus NRRL 163 (Q)",
    "MIC": "> 31.3 µg/mL"
  },
  {
    "molecule": "O=C(NNc1cccc(Cl)c1)c1cnccn1 [Compound 9b]",
    "assayTarget": "Aspergillus fumigatus NRRL 163 (Q)",
    "MIC": "> 31.3 µg/mL"
  }
]

Next:
Lab entry: Aspergillus fumigatus NRRL 163 (Q) assay, molecule O=C(NNc1ccc(F)cc1)c1ccc(F)cc1F [Compound 1d] , MIC = > 31.3 µg/mL

---

Test system: Aspergillus fumigatus NRRL 163 (Q)
Experiment: MIC determination by in vitro antifungal assay
Type: cell-based
Conditions: Aspergillus fumigatus, NRRL163; strain Q = A. fumigatus NRRL 163; read-out: MIC
Measured MIC by item

[
  {
    "entrySmiles": "O=C(NNc1cc(Cl)cc(Cl)c1)c1ccccn1",
    "recordedValue": "> 31.3 mg/L"
  }
]

O=C(NNc1cc(F)cc(F)c1)c1ccccn1 has a reported MIC of ≤ 0.06 mg/L

COc1ccc(NNC(=O)c2ccccn2)cc1 has a reported MIC of > 31.3 mg/L

O=C(NNc1ccc(F)cc1F)c1cnccn1 has a reported MIC of > 31.3 mg/L

COc1ccc(NNC(=O)c2cccc(F)n2)cc1 has a reported MIC of > 31.3 mg/L

O=C(NNc1ccc(F)cc1F)c1cccc(Br)n1 has a reported MIC of > 31.3 mg/L
